Ref: ChEMBL document CHEMBL1122244

# measured on: Monoamine oxidase (Rattus norvegicus, UniProt P19643+P21396)
# test summary: In vitro inhibition of Monoamine oxidase at rat hyphalamic mitochondrial 5-HT by displacing 2.5 uM of [14C]5-HT.
# Format: protein assay
measured property: IC50 (µM)
Supply the numeric figure in µM, leaving out any unit text.

compound C=C=C(CN)Cc1ccc(OC)cc1 , IC50 observed: 0.7

The reported IC50 of the compound C=C=C(CN)Cc1ccc(Cl)cc1 was 0.26

Sample C=C=C(CNC)Cc1ccccc1 ; IC50 observed: 6.2

What the record says about C=C=C(CN)Cc1ccc(C)cc1 : IC50 is 1.1

Just so you know, measured IC50 for C=C=CC(C)N(C)Cc1ccccc1 (centres undefined) came out at 43

Entry C=C=CCNCc1ccccc1 ; IC50 = 1.8

Documented IC50 of C=C=CCN1CCc2ccccc2C1 : 7

According to the records, this compound C=C=CCN(C)CCCOc1ccc(Cl)cc1Cl displays IC50 of 0.004

In plain terms, C=C=C(CN)c1ccccc1 has a documented IC50 of 7.2

The measured IC50 associated with C=C=CCN(C)Cc1ccccc1 reads 8.2

IC50 reading for CC=C=CCN(C)Cc1ccccc1.O=C(O)C(=O)O (stereo in doubt; (R)(-)2) : 17

In plain terms, C=C=C(Cc1ccccc1)CN(C)C has a documented IC50 of 25

Summary for this compound, CC=C=CCN(C)Cc1ccccc1.O=C(O)C(=O)O (stereo in doubt; (S)(+)2) : IC50 is 51

Briefly, IC50 measured for C=C=C(CN)Cc1ccccc1 : 20
